Quick reference: growth inhibition of the listed items.
Assay: NCI Yeast Anticancer Drug Screen. Data for the sgs1 mgt1 strain (AID 161);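 also: 0% = growth of cultures given vehicle only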
Conditions: S. cerevisiae sgs1 mgt1 strain, at 50.0 µM, active compounds read high
The panel holds about 79,000 compounds, 15% with a hit somewhere; the sample as a whole holds those more often.
parameter: growth inhibition (%)

- COc1c2c(cc3occ(-c4ccc(CC=C(C)C)cc4)c(=O)c13)OC(C)(C)C=C2: -3
- COc1ccccc1Nc1nc(N)nc(N)c1N=O: -16.2
- O=C(O)CCN1CCCS(=O)(=O)C1=O: -0.35
- O=[N+]([O-])C1C2C=CC(C2)[C@H]1c1ccco1 (some centres not stated): -24.7
- O=C1CCCC2C(O)CCC[C@H]12 (some centres not stated): -21.8
- O=C(c1cccc(C(=O)N(c2ccccc2)C2CCCCC2)c1)N(c1ccccc1)C1CCCCC1: -1.55
- CC1CCC(C(C)C)/C(=N\O)C1 (configuration not stated): -11.9
- O=C(N/C(=C\c1ccccc1)C(=O)N1CCNCC1)c1ccccc1: 0.65
- C#CC(O)(CC)CCCC (configuration not stated): 10.2
- COC(=O)[C@]1(C)CCC[C@]2(C)C3=C[C@@H](O)[C@@]4(C(C)C)O[C@H]4[C@]3(O)CC[C@@H]12: -9.15
- CCN(CC)CCN(C(=S)Nc1ccccc1)c1ccccc1: 17.6
- CC(C)(C)SC(=S)SCC(=O)c1cc2ccccc2o1: 41.4
